Origin of the recorded values: a melting point compilation (Tetko et al.; mined from patent text by program, amines drawn as free bases though some values may be those of a salt)

ENDPOINT: melting point

# count of solved cases: 10
[[record]]
compound = "Fc1ccc(-c2c[nH]cc2-c2ccc(F)cc2)cc1"
value_observed = "142 °C"

[[record]]
compound = "CCOc1nc(Cl)ncc1F"
value_observed = "30 to 32 °C"

[[record]]
compound = "COc1ccc(-c2nc3cnccc3[nH]2)c(O)c1"
value_observed = "255 °C"

[[record]]
compound = "OCC1CCCc2c1ncn2C(c1ccccc1)(c1ccccc1)c1ccccc1 (stereo unspecified)"
value_observed = "168 to 170 °C"

[[record]]
compound = "COC1CCN(C2CCN(c3ccc(NC(=O)c4cnn(-c5ccc(Cl)cc5)c4C)cc3C#N)CC2)CC1"
value_observed = "245 °C"

[[record]]
compound = "O=C1Nc2ccc(S(=O)(=O)N3CCC[C@H]3CN3CCOCC3)cc2C1=O"
value_observed = "163 to 164 °C"

[[record]]
compound = "CSC(=O)c1c(O)ccc2ccccc12"
value_observed = "111 to 112 °C"

[[record]]
compound = "Cc1cc2c(s1)Nc1ccccc1N=C2N1CCN(C)[C@@H](CO)C1"
value_observed = "118 to 124 °C"

[[record]]
compound = "c1ccc(Cc2nc(C3CCCCC3)oc2CN2CCc3c([nH]c4ccccc34)C2)cc1"
value_observed = "200 to 201 °C"

[[record]]
compound = "CC(C)(O)c1cc(-c2ccc(Cl)cc2)nc2ccnn12"
value_observed = "113 to 115 °C"


Looking up C=CCNC(=O)c1cc(Cl)c2[nH]ncc2n1 , I see its melting point listed as 121 to 125 °C
